Below, each of the binders is paired with its reported neutralization IC50 value.
Biological target: HIV-1 Env of ZM53.12 (HIV-1)
Test: cell-based or functional assay
Just the number please, in µg/mL, no unit attached.

{"binder": "CAP256-VRC26.05 (antibody, V domains shown) VH: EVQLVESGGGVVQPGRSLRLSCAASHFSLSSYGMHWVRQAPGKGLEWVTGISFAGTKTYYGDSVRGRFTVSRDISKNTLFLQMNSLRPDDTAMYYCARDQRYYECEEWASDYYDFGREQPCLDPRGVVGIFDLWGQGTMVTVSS VL: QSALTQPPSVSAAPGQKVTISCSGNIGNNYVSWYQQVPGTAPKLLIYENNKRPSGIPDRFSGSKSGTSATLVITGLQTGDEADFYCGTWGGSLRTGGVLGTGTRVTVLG", "neutralization IC50, µg/mL": 0.012}
{"binder": "CAP256-VRC26.11 (antibody, V domains shown) VH: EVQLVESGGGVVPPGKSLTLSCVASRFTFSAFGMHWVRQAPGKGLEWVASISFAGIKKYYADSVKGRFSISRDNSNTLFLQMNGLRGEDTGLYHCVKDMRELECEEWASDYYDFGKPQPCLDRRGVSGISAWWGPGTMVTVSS VL: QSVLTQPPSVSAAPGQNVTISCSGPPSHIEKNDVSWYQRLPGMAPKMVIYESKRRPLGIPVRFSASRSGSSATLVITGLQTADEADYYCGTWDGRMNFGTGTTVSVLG", "neutralization IC50, µg/mL": 0.081}

Next binder, neutralization IC50 to be filled in.
Need neutralization IC50, item CAP256-VRC26.04 (antibody, V domains shown) VH: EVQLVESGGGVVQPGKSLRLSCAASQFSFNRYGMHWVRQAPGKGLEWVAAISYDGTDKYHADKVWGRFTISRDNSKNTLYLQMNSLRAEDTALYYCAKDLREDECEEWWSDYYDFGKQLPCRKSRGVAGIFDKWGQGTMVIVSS VL: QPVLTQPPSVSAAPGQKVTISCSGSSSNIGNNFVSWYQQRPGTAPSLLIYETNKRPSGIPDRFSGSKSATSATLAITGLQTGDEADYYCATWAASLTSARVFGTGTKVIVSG
0.004

All values here come from patent US20200199204A1.
